Test system: bedstraw
Assay: Test B preemergence/postemergence greenhouse plant response rating 0 to 10
Type: in vivo, Galium aparine
Conditions: PREEMERGENCE, Rate 10 g/ha; 0 to 10 scale
Source text: Seeds of barley (Hordeum vulgare), barnyardgrass (Echinochloa crus-galli), bedstraw (Galium aparine), blackgrass (Alopecurus myosuroides), […] […] Treated plants and controls were maintained in a greenhouse for twelve to sixteen days, after which all species were compared to controls and visually evaluated. […]
resultType: Plant response rating, Bedstraw
I'd appreciate a reply containing only the number, no unit.

// Plant response rating, Bedstraw lookup, compound = CCN1C(=O)COc2cc(F)c(-c3nn4c(c3Cl)CCCC4)cc21 [Compound 54] , result: 8

// Plant response rating, Bedstraw lookup, compound = C#CC(C)N1C(=O)COc2cc(F)c(-c3nn4c(c3Cl)CCCC4)cc21 (stereo not shown) [Compound 50] , result: 3

// Plant response rating, Bedstraw lookup, compound = C#CCOC(=O)COc1cc(-c2nn3c(c2Cl)CCCC3)c(F)cc1Cl [Compound 61] , result: 0

// Plant response rating, Bedstraw lookup, compound = COCCN1C(=O)COc2cc(F)c(-c3nn4c(c3Cl)CCCC4)cc21 [Compound 53] , result: 8

* * *

Listed next: entries and their corresponding Plant response rating (0 to 10 scale), Wild oat.
system: wild oat; experiment: Test B preemergence/postemergence greenhouse plant response rating 0 to 10; assay type: in vivo, Avena fatua; conditions: PREEMERGENCE, Rate 200 g/ha
I'd appreciate a reply containing only the number, no unit.

The cases that follow already have their Plant response rating (0 to 10 scale), Wild oat on record.
CC(C)OC(=O)COc1cc(-c2nn3c(c2Br)CCCC3)c(F)cc1Cl [Compound 64] ... 0
Oc1cc(-c2nn3c(c2Cl)CCCC3)c(Cl)cc1Cl [Compound 68] ... 0
C#CC(C)Oc1cc(-c2nn3c(c2Cl)CCCC3)c(Cl)cc1Cl (centres unmarked) [Compound 74] ... 3
CCOCOc1cc(-c2nn3c(c2Cl)CCCC3)c(F)cc1Cl [Compound 59] ... 7
CCOC(=O)c1cc(-c2nn3c(c2Cl)CCCC3)c(F)cc1Cl [Compound 78] ... 6
COCCOc1cc(-c2nn3c(c2Cl)CCCC3)c(Cl)cc1Cl [Compound 72] ... 3

wild oat Plant response rating (0 to 10 scale), Wild oat of CC(C)(C)C(=O)COc1cc(-c2nn3c(c2Cl)CCCC3)c(Cl)cc1Cl [Compound 77] is 0

wild oat Plant response rating (0 to 10 scale), Wild oat of C=CCOc1cc(-c2nn3c(c2Cl)CCCC3)c(Cl)cc1Cl [Compound 71] is 2

* * *

test system: common ragweed; experiment: Test G preemergence/postemergence greenhouse plant response rating 0 to 100; assay type: in vivo, Ambrosia elatior; details: PREEMERGENCE, Rate 250 g/ha, 0 to 100 scale
resultType: Plant response rating, Cmn Ragweed
I'd appreciate a reply containing only the number, no unit.

The cases that follow already have their Plant response rating, Cmn Ragweed on record.
CCCOc1cc(-c2nn3c(c2Cl)CCCC3)c(F)cc1Cl ... 0
CC(C)COc1cc(-c2nn3c(c2Cl)CCCC3)c(F)cc1Cl ... 0
CC(C)N1C(=O)COc2cc(F)c(-c3nn4c(c3Cl)CCCC4)cc21 ... 70
C#CCN1C(=O)COc2cc(F)c(-c3nn4c(c3Cl)CCCC4)cc21 ... 0

Here's the next entry for you.
// Plant response rating, Cmn Ragweed lookup, compound = C=CCN1C(=O)COc2cc(F)c(-c3nn4c(c3Cl)CCCC4)cc21 , result: 0

* * *

System: giant foxtail
Experiment: Test B preemergence/postemergence greenhouse plant response rating 0 to 10
Type: in vivo, Setaria faberii
Conditions: PREEMERGENCE, Rate 50 g/ha; 0 to 10 scale
Source text: Seeds of barley (Hordeum vulgare), barnyardgrass (Echinochloa crus-galli), bedstraw (Galium aparine), blackgrass (Alopecurus myosuroides), […] […] Treated plants and controls were maintained in a greenhouse for twelve to sixteen days, after which all species were compared to controls and visually evaluated. […]
Answer n if Plant response rating, Giant foxtail is under 2, and y if it is 2 or more.

C=CCOc1cc(-c2nn3c(c2Cl)CCCC3)c(Cl)cc1Cl ... n
Fc1cc(Cl)c(OCCCl)cc1-c1nn2c(c1Cl)CCCC2 ... y
CCOCOc1cc(-c2nn3c(c2Cl)CCCC3)c(F)cc1Cl ... y

From here, focus on the item given below.
# input Tell me whether Plant response rating, Giant foxtail is at least 2 here: COCOc1cc(-c2nn3c(c2Br)CCCC3)c(F)cc1Cl
# output y

* * *

system: downy brome; assay: Test C preemergence/postemergence greenhouse plant response rating 0 to 100; type: in vivo, Bromus tectorum; details: POSTEMERGENCE, 125 g/ha, 0 to 100 scale
resultType: Plant response rating Downy Brome
I'd appreciate a reply containing only the number, no unit.

CCOC(=O)COc1cc(-c2nn3c(c2Cl)CCCC3)c(F)cc1Cl ... 50
CC(C)OC(=O)COc1cc(-c2nn3c(c2Cl)CCCC3)c(F)cc1Cl ... 40

// Plant response rating Downy Brome lookup, compound = CCOCOc1cc(-c2nn3c(c2Cl)CCCC3)c(F)cc1Cl , result: 90

// Plant response rating Downy Brome lookup, compound = Fc1cc(Cl)ccc1-c1nn2c(c1Br)CCCC2 , result: 90

* * *

Listed next: entries and their corresponding Plant response rating, Morningglory.
tested on: morningglory; assay: Test B preemergence/postemergence greenhouse plant response rating 0 to 10; assay type: in vivo, Ipomoea hederacea; settings: PREEMERGENCE, Rate 50 g/ha; 0 to 10 scale

morningglory Plant response rating, Morningglory of CC(C#N)Oc1cc(-c2nn3c(c2Cl)CCCC3)c(F)cc1Cl (centres unmarked) is 3

morningglory Plant response rating, Morningglory of COC(=O)c1cc(-c2nn3c(c2Cl)CCCC3)c(F)cc1Cl is 0

morningglory Plant response rating, Morningglory of O=C1COc2cc(F)c(-c3nn4c(c3Br)CCCC4)cc2N1 is 5

morningglory Plant response rating, Morningglory of CCCN1C(=O)COc2cc(F)c(-c3nn4c(c3Cl)CCCC4)cc21 is 2

morningglory Plant response rating, Morningglory of C#CCOc1cc(-c2nn3c(c2Br)CCCC3)c(F)cc1Cl is 2

* * *

test system: cotton; experiment: Test B preemergence/postemergence greenhouse plant response rating 0 to 10; assay type: in vivo, Gossypium hirsutum; conditions: Rate 200 g/ha, PREEMERGENCE; 0 to 10 scale
resultType: Plant response rating, Cotton
I'd appreciate a reply containing only the number, no unit.

The cases that follow already have their Plant response rating, Cotton on record.
COc1cc(-c2nn3c(c2Cl)CCCC3)c(F)cc1Cl [Compound 29] ... 7
COC(=O)c1cc(-c2nn3c(c2Cl)CCCC3)c(F)cc1Cl [Compound 43] ... 1
CC(C)Oc1cc(-c2nn3c(c2Br)CCCC3)c(F)cc1Cl [Compound 38] ... 9
CC(C)OC(=O)c1cc(-c2nn3c(c2Cl)CCCC3)c(F)cc1Cl [Compound 44] ... 8
Clc1ccc(-c2nc3n(c2Cl)CCC=C3)c(Cl)c1 [Compound 1] ... 0

cotton Plant response rating, Cotton of COC(=O)C(C)Oc1cc(-c2nn3c(c2Cl)CCCC3)c(F)cc1Cl (centres unmarked) [Compound 28] is 0

cotton Plant response rating, Cotton of CC(C)COc1cc(-c2nn3c(c2Cl)CCCC3)c(F)cc1Cl [Compound 30] is 6

cotton Plant response rating, Cotton of Clc1ccc(-c2nc3n(c2Br)CCCC3)c(Cl)c1 [Compound 2] is 0

cotton Plant response rating, Cotton of C#CCOc1cc(-c2nn3c(c2Br)CCCC3)c(F)cc1Cl [Compound 26] is 9

cotton Plant response rating, Cotton of Fc1cc(Cl)c(OCCCl)cc1-c1nn2c(c1Cl)CCCC2 [Compound 49] is 2

cotton Plant response rating, Cotton of Fc1cc(Cl)c(OC2CCCC2)cc1-c1nn2c(c1Cl)CCCC2 [Compound 24] is 8

* * *

System: rice
Experiment: Test B preemergence/postemergence greenhouse plant response rating 0 to 10
Type: in vivo, Oryza sativa
Conditions: POSTEMERGENCE, Rate 50 g/ha; 0 to 10 scale
Source text: Seeds of barley (Hordeum vulgare), barnyardgrass (Echinochloa crus-galli), bedstraw (Galium aparine), blackgrass (Alopecurus myosuroides), […] […] Treated plants and controls were maintained in a greenhouse for twelve to sixteen days, after which all species were compared to controls and visually evaluated. […]
resultType: Plant response rating, Rice
I'd appreciate a reply containing only the number, no unit.

The cases that follow already have their Plant response rating, Rice on record.
COCOc1cc(-c2nn3c(c2Br)CCCC3)c(F)cc1Cl ... 5
COC(=O)C(C)Oc1cc(-c2nn3c(c2Cl)CCCC3)c(F)cc1Cl (stereo not drawn) ... 5
C=CCOc1cc(-c2nn3c(c2Br)CCCC3)c(F)cc1Cl ... 5
CCOC(=O)c1cc(-c2nn3c(c2Cl)CCCC3)c(F)cc1Cl ... 3
CC(C)Oc1cc(-c2nn3c(c2Cl)CCCC3)c(Cl)cc1Cl ... 5

Here's the next entry for you.
rice Plant response rating, Rice of CCS(=O)(=O)Oc1cc(-c2nn3c(c2Cl)CCCC3)c(F)cc1Cl is 4
